Origin of values: patent US5750754A

studyTarget: purified human platelet fibrinogen receptor (GPIIb/IIIa) (Homo sapiens, UniProt P05106+P08514)
Construct: is isolated from human platelet lysates; from tissue
Sequence (P08514 32-887 limits assumed): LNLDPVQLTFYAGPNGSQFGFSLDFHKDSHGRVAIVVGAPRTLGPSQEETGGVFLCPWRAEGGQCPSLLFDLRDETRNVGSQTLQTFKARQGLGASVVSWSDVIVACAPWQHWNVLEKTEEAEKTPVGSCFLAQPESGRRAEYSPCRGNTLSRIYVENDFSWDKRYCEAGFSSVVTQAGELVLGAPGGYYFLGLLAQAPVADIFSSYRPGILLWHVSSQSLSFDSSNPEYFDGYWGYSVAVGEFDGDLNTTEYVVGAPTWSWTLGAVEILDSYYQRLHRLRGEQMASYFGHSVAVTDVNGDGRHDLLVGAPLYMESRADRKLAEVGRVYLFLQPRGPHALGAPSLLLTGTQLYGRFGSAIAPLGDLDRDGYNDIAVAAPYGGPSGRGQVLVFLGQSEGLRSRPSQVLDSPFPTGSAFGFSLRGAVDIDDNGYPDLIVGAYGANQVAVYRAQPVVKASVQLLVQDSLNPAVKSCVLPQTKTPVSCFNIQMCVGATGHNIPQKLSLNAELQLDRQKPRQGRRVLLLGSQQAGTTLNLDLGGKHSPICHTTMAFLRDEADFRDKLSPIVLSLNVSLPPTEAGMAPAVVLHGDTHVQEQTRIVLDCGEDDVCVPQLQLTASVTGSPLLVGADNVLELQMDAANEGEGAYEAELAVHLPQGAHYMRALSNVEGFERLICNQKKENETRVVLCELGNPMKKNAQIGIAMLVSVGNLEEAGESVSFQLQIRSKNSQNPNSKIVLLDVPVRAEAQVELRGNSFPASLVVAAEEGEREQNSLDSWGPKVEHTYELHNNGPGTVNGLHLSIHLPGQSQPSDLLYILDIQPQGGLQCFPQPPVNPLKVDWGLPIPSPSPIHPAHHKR
Sequence (P08514 891-1039 limits assumed): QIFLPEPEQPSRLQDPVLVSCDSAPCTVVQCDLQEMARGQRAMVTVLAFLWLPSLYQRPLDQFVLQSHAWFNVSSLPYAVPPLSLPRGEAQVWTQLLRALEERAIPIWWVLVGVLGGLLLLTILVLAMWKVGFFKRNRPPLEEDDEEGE
Sequence (P05106 27-788): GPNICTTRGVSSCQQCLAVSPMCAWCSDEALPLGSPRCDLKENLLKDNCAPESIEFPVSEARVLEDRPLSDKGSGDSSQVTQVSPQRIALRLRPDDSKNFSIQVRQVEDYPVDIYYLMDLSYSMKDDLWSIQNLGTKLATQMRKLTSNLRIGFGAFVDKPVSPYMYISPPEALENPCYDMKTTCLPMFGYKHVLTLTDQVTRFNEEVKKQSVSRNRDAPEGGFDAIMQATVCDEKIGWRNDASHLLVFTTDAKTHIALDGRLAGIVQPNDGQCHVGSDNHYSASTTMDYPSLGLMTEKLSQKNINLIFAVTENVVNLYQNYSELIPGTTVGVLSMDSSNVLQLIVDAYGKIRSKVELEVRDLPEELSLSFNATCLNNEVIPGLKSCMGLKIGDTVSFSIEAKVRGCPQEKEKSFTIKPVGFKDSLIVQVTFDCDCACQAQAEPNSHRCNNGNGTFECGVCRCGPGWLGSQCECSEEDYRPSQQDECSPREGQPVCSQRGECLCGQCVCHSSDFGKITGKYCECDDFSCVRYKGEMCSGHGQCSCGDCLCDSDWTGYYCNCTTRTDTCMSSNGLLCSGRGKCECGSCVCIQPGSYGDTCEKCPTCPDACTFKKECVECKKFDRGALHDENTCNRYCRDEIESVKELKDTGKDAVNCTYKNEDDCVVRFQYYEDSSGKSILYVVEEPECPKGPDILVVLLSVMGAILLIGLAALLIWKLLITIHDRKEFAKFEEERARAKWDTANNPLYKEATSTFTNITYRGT
assayProtocol: Test (b): GPIIb/IIIa ELISA, inhibition of biotinylated fibrinogen binding
conditionSet: purified human platelet GPIIb/IIIa, ELISA; read-out: Test (b): pIC50 (-log(IC50)), 50% inhibition of biotinylated fibrinogen binding to GPIIb/IIIa (converted)
Counter-ions that a name gives are not always drawn.
recordedMetric: IC50 (nM)

Below, 4 molecules whose answers are already recorded.
| molecule | IC50 / nM |
| --- | --- |
| COC(=O)C(N)CCOc1ccc(N2CCN(c3ccncc3)CC2)cc1 (racemic) | 501 |
| COC(=O)CCNC(=O)CCCCN1CCN(c2ccncc2)CC1 | 15800 |
| O=C(O)COc1ccc(NC(=O)CC2CCN(c3ccncc3)CC2)cc1 [Example 166, dihydrochloride] | 316 |
| O=C(O)[C@H](Cc1ccc(OCCC2CCN(c3ccncc3)CC2)cc1)NS(=O)(=O)Cc1ccccc1 | 2 |

(A) CCCCS(=O)(=O)NCc1ccc(CCN2CCN(c3ccncc3)CC2)cc1
(B) O=C(O)Cc1ccc(C(=O)CN2CCN(c3ccncc3)CC2)cc1 [Example 15, trifluoroacetate salt]
Q: Form: Entry with minimum IC50 (choose one): A / B Refer to your chosen item by its label in the answer.
A: B
(B: 1260 nM, A: 15800 nM)
